Biological target: UniProtKB P32245
Sequence (P32245 whole entry): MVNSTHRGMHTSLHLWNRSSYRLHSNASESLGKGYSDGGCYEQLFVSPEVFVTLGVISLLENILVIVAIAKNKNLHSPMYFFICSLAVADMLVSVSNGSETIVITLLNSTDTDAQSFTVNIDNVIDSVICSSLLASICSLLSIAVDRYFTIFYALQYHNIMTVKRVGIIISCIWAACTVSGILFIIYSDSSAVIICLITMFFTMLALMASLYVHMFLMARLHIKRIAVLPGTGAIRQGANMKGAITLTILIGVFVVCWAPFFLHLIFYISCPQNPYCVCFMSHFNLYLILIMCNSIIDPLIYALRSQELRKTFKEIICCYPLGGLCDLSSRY
Test: cAMP agonist stimulation, low receptor density system (0.1 ng/mL doxycycline)
Conditions: 0.1 ng/mL doxycycline, low receptor density hMC4-R system; NDP-α-MSH maximal cAMP = 1.0
Positions of bridges follow the written chain, without caps; N, C: chain ends. Non-standard residues stand in square brackets, D forms with d. Residues, ends and D or L forms follow the SMILES beside them. *: point of attachment. dPhe(4-Cl) = N[C@H](Cc1ccc(Cl)cc1)C(=O)O; 2Nal = N[C@@H](Cc1ccc2ccccc2c1)C(=O)O; d2Nal = N[C@H](Cc1ccc2ccccc2c1)C(=O)O; Heptanoyl = CCCCCCC(=O)*; Nle = CCCC[C@H](N)C(=O)O; Ahp = NCCCCCCC(=O)O; Bn = c1ccc(C*)cc1
measured quantity: Efficacy/Intrinsic Activity

{"molecule": "C[C@@H]1CN(C(=O)[C@H](N)Cc2ccc3ccccc3c2)[C@@H](CCCNC(=N)N)CN1C(=O)CCCc1c[nH]c2ccccc12", "obs value": "None"}
{"molecule": "CCCC[C@H](NC(C)=O)C(=O)N[C@H]1CC(=O)NCCCC[C@@H](C(=O)O)NC(=O)[C@H](Cc2ccc3ccccc3c2)NC(=O)[C@H](CCCNC(=N)N)NC(=O)[C@@H](Cc2ccc3ccccc3c2)NC(=O)[C@H](Cc2c[nH]cn2)NC1=O [Example 34] (Ac-[Nle]DH[d2Nal]R[2Nal]K-OH; lactam 2-7)", "obs value": "None"}
{"molecule": "NCCCC[C@H]1C(=O)N(CCc2ccc3ccccc3c2)CCN1C(=O)[C@@H](Cc1ccc(Cl)cc1Cl)NC(=O)c1ccc(Oc2ccccc2)cc1", "obs value": "None"}
{"molecule": "C[C@@H]1CN(C(=O)[C@H](N)Cc2ccc3ccccc3c2)[C@@H](CCCNC(=N)N)CN1C(=O)Cc1c[nH]c2ccccc12", "obs value": "None"}
{"molecule": "N=C(N)NCCC[C@H](NC(=O)[C@@H](Cc1ccc(Cl)cc1)NC(=O)[C@H](COCc1ccccc1)NC(=O)CCCCCCN)C(=O)N[C@@H](Cc1c[nH]c2ccccc12)C(=O)N[C@@H](CC(=O)O)C(N)=O [Example 13] (H-[Ahp]S(Bn)[dPhe(4-Cl)]RWD-NH2)", "obs value": "None"}
{"molecule": "CC(=O)N[C@H](Cc1ccc(C)cc1C)C(=O)N1C[C@@H](C)N(CCc2ccc3ccccc3c2)C[C@@H]1CCCNC(=N)N", "obs value": "None"}
{"molecule": "N=C(N)NCCC[C@H]1C(=O)N(CCc2c[nH]c3ccccc23)CCN1C(=O)[C@H](N)Cc1ccc(Cl)cc1Cl", "obs value": "None"}
{"molecule": "CCCCCCC(=O)N[C@H](C(=O)N[C@H](Cc1ccc(Cl)cc1)C(=O)N[C@@H](CCCNC(=N)N)C(=O)N[C@@H](Cc1c[nH]c2ccccc12)C(N)=O)[C@@H](C)OCc1ccccc1 [Example 23] (Heptanoyl-T(Bn)[dPhe(4-Cl)]RW-NH2)", "obs value": "None"}
{"molecule": "N=C(N)NCCC[C@H]1CN(CCc2ccc3ccccc3c2)CCN1C(=O)[C@H](N)Cc1ccc(Cl)cc1Cl", "obs value": "None"}
{"molecule": "N=C(N)NCCC[C@H](NC(=O)[C@@H](Cc1ccc(Cl)cc1)NC(=O)[C@H](COCc1ccccc1)NC(=O)CCCCCCN)C(=O)N[C@@H](Cc1c[nH]c2ccccc12)C(=O)N[C@@H](CC(=O)O)C(=O)N[C@@H](Cc1ccccc1)C(N)=O [Example 14] (H-[Ahp]S(Bn)[dPhe(4-Cl)]RWDF-NH2)", "obs value": "None"}
